Entries annotated with measured growth
System: MALME-3M melanoma
Test: NCI-60 one-dose screen, 48 h (100 = growth as untreated, 0 = no growth, -100 = all killed)
Conditions: 10 µM unless noted
This is part of a sample that, as a whole, favours compounds with a hit. Of some 83,000 tested, about 20% had one in any assay.
EXPERIMENTAL_ENDPOINT: growth (%)

INSERT INTO assay_data (compound, experimental_endpoint, units_text, recorded_measurement) VALUES
  ('CC1=NN(c2ccccc2Cl)C(=O)/C1=C\c1cn(S(=O)(=O)c2ccc(C)cc2)c2ccccc12', 'growth', '%', 114),
  ('O=C(CCc1nnc(Cn2ccnc2)o1)c1nc2ccccc2[nH]1', 'growth', '%', 77.8),
  ('Clc1ccc([C@@H]2C[C@@H]3Cc4cc(Br)c5ccccc5c4N2O3)c(Cl)c1', 'growth', '%', 61.7),
  ('O=C(Nc1ccc(C2=NCCCN2)cc1)Nc1ccc(C2=NCCCN2)cc1', 'growth', '%', 104),
  ('O=C(/C(=N/O)S(=O)(=O)c1ccccc1)c1cccs1', 'growth', '%', 106),
  ('CCC(c1ccccc1)c1noc(CCN(CC)CC)n1 (configuration not stated)', 'growth', '%', 93.8),
  ('Cc1nn(-c2ccc(Cl)cc2)c2nc3c(nc12)C(=O)c1ccccc1-3', 'growth', '%', 84.7),
  ('CC(=O)Oc1c(C)c(OC(C)=O)c2c(c1C(C)=O)OC1CC(=O)C(C(C)=O)=C(O)C21C (configuration not stated)', 'growth', '%', 96.9),
  ('OCCOc1c(Cl)cc(Cl)cc1Cl', 'growth', '%', 101),
  ('CCOC(=O)C(C(C)=O)c1nc2sc3cc(Cl)ccc3n2c(=N)c1C#N (configuration not stated)', 'growth', '%', 52.5),
  ('CCCC[N+](CCCC)=c1ccc2nc3c(C)cc(N(CC)CC)cc3sc-2c1', 'growth', '%', -78.6),
  ('O=C(c1ccccc1)c1ccccc1Cl', 'growth', '%', 102);

---

System: HT29 colon
Assay: NCI-60 one-dose screen, 48 h
Details: 10 µM unless noted
About 83,000 compounds went through this panel and 20% of them were active in at least one assay; those are over-represented in the sample as a whole. Activity calls are given as the source filed them. The calls were made as follows: active = growth percent below 10; inactive = the rest.
Outcomes: active, inactive

INSERT INTO assay_data (sample_smiles, qualitative_label) VALUES
  ('CCCCOc1ccc(C(C)(C)c2ccc(OCCCC)cc2)cc1', 'inactive'),
  ('COc1ccc2c(c1)/C(=C\c1c[nH]c3ccc(F)cc13)C(=O)N2', 'inactive'),
  ('CCN1C2=C(SC(=S)C1=C1SC(C(=O)OC)=C(C(=O)OC)S1)SC(=Nc1ccc(OC)cc1)C2=O', 'active');

---

Test system: CCRF-CEM leukemia
Test: NCI-60 one-dose screen, 48 h
Conditions: 10 µM unless noted
About 83,000 compounds went through this panel and 20% of them were active in at least one assay; those are over-represented in the sample as a whole. The source made the active and inactive calls. The calls were made as follows: active = growth percent below 10; inactive = the rest.
Labels: 1 (yes) = active, 0 (no) = inactive

INSERT INTO results (sample_smiles, qualitative_label) VALUES
  ('Cc1ccc(C(=O)Nc2ccc(Cl)cc2C(=O)NCc2ccccc2)cc1', '0 (no)'),
  ('COc1ncc(-c2ccc3nccc(C#CCN4CCN(S(C)(=O)=O)CC4)c3c2)cc1NS(=O)(=O)c1ccc(F)cc1F', '1 (yes)'),
  ('O=C(Nc1ccc(Cl)cc1)c1cc2c(cc1O)[nH]c1ccccc12', '0 (no)');

---

Test system: HT29 colon
Test: NCI-60 one-dose screen, 48 h (100 = growth as untreated, 0 = no growth, -100 = all killed)
Conditions: 10 µM unless noted
This is part of a sample that, as a whole, favours compounds with a hit. Of some 83,000 tested, about 20% had one in any assay. Calls of active or inactive are those of the source. The calls were made as follows: active = growth percent below 10; inactive = the rest.
Each entry below lists one item and its recorded growth value.
EXPERIMENTAL_ENDPOINT: growth

INSERT INTO measurements (compound, recorded_measurement) VALUES
  ('Nc1ccc2c(c1)/C(=N/O)c1cc([N+](=O)[O-])ccc1-2', '88.7% (inactive)'),
  ('NC(=O)N/N=C/c1ccc(Br)o1', '102% (inactive)'),
  ('O=[N+]([O-])c1ccc(Oc2cccc(C(F)(F)F)c2)c([N+](=O)[O-])c1', '-4.93% (active)'),
  ('COc1ccc(-c2cncn2-c2ccc(-c3nc4cc(OC)c(OC)c(OC)c4s3)cc2)cc1N', '43.7% (inactive)'),
  ('Cc1nn(-c2ccc(Cl)cc2)c2nc3c(nc12)C(=O)C(=O)c1ccccc1-3', '4.77% (active)'),
  ('CCCCCCCC/C=C/CCCCCCCC1=NC(C)(C)CN1CCO', '-42.1% (active)'),
  ('O=c1ccn(C2OC(CO)C(O)C2F)c(=O)[nH]1 (centres undefined)', '104% (inactive)'),
  ('COc1ccc(/C=C2\NC(=S)NC2=O)cc1', '110% (inactive)'),
  ('COc1c(O)cc2oc3cc(O)c(CC=C(C)C)c(O)c3c(=O)c2c1C/C=C(\C)CCC=C(C)C', '26.7% (inactive)'),
  ('Clc1nc(Cl)c2ncn(-c3ccccc3)c2n1', '43.4% (inactive)'),
  ('COc1cccc2c1C(=O)c1c(O)c3c(c(O)c1C2=O)C[C@@](O)(/C(C)=N/NC(=O)c1cccc([N+](=O)[O-])c1)C[C@@H]3OC1CC(N)C(O)C(C)O1 (some centres undefined)', '-53.7% (active)'),
  ('c1ccc2cc(C[n+]3ccn(CCCCCCCn4cc[n+](Cc5ccc6ccccc6c5)c4)c3)ccc2c1', '10.4% (inactive)'),
  ('CC(=O)Nc1ccc2c(c1)Cc1c(F)c(F)c(F)c(F)c1-2', '97.1% (inactive)'),
  ('CCOC(=O)C1=C(C)N2C(=NC3=C(CCC/C3=C\c3ccc(Cl)cc3)C2c2ccc(Cl)cc2)S1 (centres undefined)', '-54.3% (active)'),
  ('CCC(C)CC(C)C(=O)c1c(O)ccn(O)c1=O (centres undefined)', '97.3% (inactive)'),
  ('Cn1cc(-c2csc(-c3cn(C)c4ncccc34)n2)c2cc(Br)cnc21', '100% (inactive)'),
  ('Clc1cccc(Cc2cn3cc(-c4ccccc4)nc3s2)c1', '53.4% (inactive)'),
  ('COc1ccc(OC)c(NC(=O)c2cc3oc4ccccc4c3cc2O)c1', '100% (inactive)'),
  ('COc1cc(/C=C2\CCC/C(=C\c3ccc(OCC4CO4)c(OC)c3)C2=O)ccc1OCC1CO1 (centres undefined)', '-15% (active)'),
  ('COc1cc2c(C#N)n3c(c2cc1OC)C(=O)C(c1ccccc1)Oc1ccccc1-3 (centres undefined)', '50.2% (inactive)'),
  ('COc1cc(/C=C/C(=O)N2CCN(C(=O)/C=C/c3ccccc3)CC2)cc(OC)c1OC', '104% (inactive)'),
  ('O=C1N(C2CCCCC2)C(=O)N1C1CCCCC1', '44.9% (inactive)'),
  ('COc1ccc(COC(C)=O)cc1', '113% (inactive)'),
  ('c1cnc2n[nH]c(Nc3ncnc4c3sc3ncccc34)c2c1', '95.4% (inactive)');

---

Test system: SF-539 CNS
Experiment: NCI-60 one-dose screen, 48 h (100 = growth as untreated, 0 = no growth, -100 = all killed)
Conditions: 10 µM unless noted
About 83,000 compounds went through this panel and 20% of them were active in at least one assay; those are over-represented in the sample as a whole.
Listed here: items and their measured growth.
EXPERIMENTAL_ENDPOINT: growth (%)

INSERT INTO measurements (molecule, target_system, experimental_endpoint, units_text, recorded_measurement) VALUES
  ('COc1ccc(-c2nn(-c3ccccc3)cc2/C=C2\SC(=S)N(CCc3ccc(O)cc3)C2=O)cc1', 'SF-539 CNS', 'growth', '%', 87.2),
  ('NC(=O)c1ccccc1NC(=O)c1ccccc1Cl', 'SF-539 CNS', 'growth', '%', 109),
  ('Cn1cc(-c2csc(-c3c[nH]c4ncccc34)n2)c2cc(F)cnc21', 'SF-539 CNS', 'growth', '%', 90.9),
  ('COc1ccc(C(=O)Nc2nc(-c3ccc(Cl)cc3)cs2)cc1', 'SF-539 CNS', 'growth', '%', 93),
  ('Cc1nc2c(O)cccc2cc1CO', 'SF-539 CNS', 'growth', '%', 93.5),
  ('O=C(C(Br)Br)C(Br)C(Br)c1ccccc1 (stereo unspecified)', 'SF-539 CNS', 'growth', '%', 97.2),
  ('CCN(CC)CCOc1ccc(C2=C(c3ccccc3)CCc3cc(OC)ccc32)cc1', 'SF-539 CNS', 'growth', '%', -17.4),
  ('Cc1c(NCc2nnc3n(Cc4ccccc4)c(=O)c4c5c(sc4n23)CCCC5)c(=O)n(-c2ccccc2)n1C', 'SF-539 CNS', 'growth', '%', 103),
  ('C[C@]12C[C@H](O)[C@H]3[C@@H](CCC4=CC(=O)CC[C@@]43C)[C@@H]1CC[C@@H]2C(=O)CO', 'SF-539 CNS', 'growth', '%', 89.3),
  ('COc1ccc(-c2c(-c3cc(OC)c(OC)c(OC)c3)noc2N)cc1', 'SF-539 CNS', 'growth', '%', 19.3),
  ('Cc1cc(NC(=O)c2ccc(N)cc2)ccc1N=Nc1ccc2c(O)c(N=Nc3ccc(Cl)c(S(=O)(=O)O)c3)c(S(=O)(=O)O)cc2c1', 'SF-539 CNS', 'growth', '%', 87.3),
  ('Cc1ccc(C(=O)Nc2ccc(Cl)cc2C(=O)NCc2ccccc2)cc1', 'SF-539 CNS', 'growth', '%', 82.3),
  ('COc1ccc(-c2c3c(nn2-c2ccc(N)cc2)CCc2cnoc2-3)cc1OC', 'SF-539 CNS', 'growth', '%', 94.5),
  ('N#Cc1c2ccccc2c2n1-c1ccccc1OC(c1ccccc1)C2=O (stereo unspecified)', 'SF-539 CNS', 'growth', '%', 77.2),
  ('COc1ccc(/C=C2\COc3ccc(O)c(O)c3C2=O)cc1OC', 'SF-539 CNS', 'growth', '%', -55.4),
  ('CCOC(=O)C1C(=O)OC2CCCCC21 (stereo unspecified)', 'SF-539 CNS', 'growth', '%', 105),
  ('C[N+]1(CCC[N+]2(C)C[C@@H]3[C@H](C2)[C@@H]2C=C[C@H]3C2)CCOCC1 (stereo partly specified)', 'SF-539 CNS', 'growth', '%', 100),
  ('CC(C)[O-].CC(C)[O-].CN(CCN(C)Cc1cc(F)cc(F)c1[O-])Cc1cc(F)cc(F)c1[O-].[Ti+4]', 'SF-539 CNS', 'growth', '%', -0.0224),
  ('COc1cc(/C=C2\COc3ccc(O)cc3C2=O)cc(OC)c1', 'SF-539 CNS', 'growth', '%', 80.7),
  ('CO[C@H]1/C=C/O[C@@]2(C)Oc3c(C)c(O)c4c(O)c(c(/C=N/N5C(C)CN(Cc6ccccc6)CC5C)c(O)c4c3C2=O)NC(=O)/C(C)=C\C=C\[C@H](C)[C@H](O)[C@@H](C)[C@@H](O)[C@@H](C)[C@H](OC(C)=O)[C@@H]1C (stereo partly specified)', 'SF-539 CNS', 'growth', '%', 85.8),
  ('CCOC(=O)/C=C(/C)Sc1cc(O)c2ccccc2c1O', 'SF-539 CNS', 'growth', '%', 5.78),
  ('Cn1cnc([N+](=O)[O-])c1S(=O)(=O)Oc1ccc(Cl)cc1', 'SF-539 CNS', 'growth', '%', 81.4),
  ('COc1ccc(C2CC(c3ccc(OC)c(OC)c3)=NN2C(=O)c2cc(OC)c(OC)c(OC)c2)c(OC)c1 (stereo unspecified)', 'SF-539 CNS', 'growth', '%', 64.4),
  ('COc1ccc2c(c1)nc(N)c1c3cc(C)c(C)cc3cn21', 'SF-539 CNS', 'growth', '%', 95.7),
  ('COc1ccc2[nH]cc(/C=C3/C(=O)Nc4ccc(Cl)cc43)c2c1', 'SF-539 CNS', 'growth', '%', 67.8),
  ('OC(c1cc(C(F)(F)F)nc2c(C(F)(F)F)cccc12)C1CCCCN1 (stereo unspecified)', 'SF-539 CNS', 'growth', '%', 82.8),
  ('COC1CC2CCC(C)C(O)(O2)C(=O)C(=O)N2CCCCC2C(=O)OC(C(C)CC2CCC(O)C(OC)C2)CC(=O)C(C)C=C(C)C(O)C(OC)C(=O)C(C)CC(C)/C=C/C=C/C=C1C (stereo unspecified)', 'SF-539 CNS', 'growth', '%', 35.8),
  ('O=C(Nc1ccc(Cl)cc1Cl)Nc1ccc(-c2cccnc2)cc1N1CCC(CO)CC1', 'SF-539 CNS', 'growth', '%', 30.9),
  ('CCC1=C(c2ccc(OC)cc2)C(C)Oc2cc(OC(C)=O)ccc21 (stereo unspecified)', 'SF-539 CNS', 'growth', '%', 84.3),
  ('CCOc1nc(-c2ccccc2)cc2c(O)c(C(=O)n3nc(C)cc3C)[nH]c(=O)c12', 'SF-539 CNS', 'growth', '%', 101),
  ('O=C1NC(=O)/C(=C\c2ccccc2)C2=C1CCCC2', 'SF-539 CNS', 'growth', '%', 27.4);

Reference source for all entries: PubChem BioAssay (NCI)
